Data credit: paper PMC7931646

Test system: P-glycoprotein (MDR1)
ASSAY_COMMENT: MDR1-MDCK permeability
Format: in vitro ADME
APPLIED_CONDITIONS: dog

# CPD_SMILES, efflux ratio
measured = [
    ("COc1nc(-c2cc(C)c(N[C@@H](C)c3ccc(F)cc3)nn2)ccc1-n1cnc(C)c1", 0.9),
    ("COc1nc(-c2cc(C)c(N[C@@H](C)c3c(F)cc(F)cc3F)nn2)ccc1-n1cnc(C)c1", 1.1),
]

* * *

// reported IC20 for each item listed
ASSAY_SYSTEM: hERG channel (Homo sapiens, UniProt Q12809)
Sequence (Q12809 whole entry): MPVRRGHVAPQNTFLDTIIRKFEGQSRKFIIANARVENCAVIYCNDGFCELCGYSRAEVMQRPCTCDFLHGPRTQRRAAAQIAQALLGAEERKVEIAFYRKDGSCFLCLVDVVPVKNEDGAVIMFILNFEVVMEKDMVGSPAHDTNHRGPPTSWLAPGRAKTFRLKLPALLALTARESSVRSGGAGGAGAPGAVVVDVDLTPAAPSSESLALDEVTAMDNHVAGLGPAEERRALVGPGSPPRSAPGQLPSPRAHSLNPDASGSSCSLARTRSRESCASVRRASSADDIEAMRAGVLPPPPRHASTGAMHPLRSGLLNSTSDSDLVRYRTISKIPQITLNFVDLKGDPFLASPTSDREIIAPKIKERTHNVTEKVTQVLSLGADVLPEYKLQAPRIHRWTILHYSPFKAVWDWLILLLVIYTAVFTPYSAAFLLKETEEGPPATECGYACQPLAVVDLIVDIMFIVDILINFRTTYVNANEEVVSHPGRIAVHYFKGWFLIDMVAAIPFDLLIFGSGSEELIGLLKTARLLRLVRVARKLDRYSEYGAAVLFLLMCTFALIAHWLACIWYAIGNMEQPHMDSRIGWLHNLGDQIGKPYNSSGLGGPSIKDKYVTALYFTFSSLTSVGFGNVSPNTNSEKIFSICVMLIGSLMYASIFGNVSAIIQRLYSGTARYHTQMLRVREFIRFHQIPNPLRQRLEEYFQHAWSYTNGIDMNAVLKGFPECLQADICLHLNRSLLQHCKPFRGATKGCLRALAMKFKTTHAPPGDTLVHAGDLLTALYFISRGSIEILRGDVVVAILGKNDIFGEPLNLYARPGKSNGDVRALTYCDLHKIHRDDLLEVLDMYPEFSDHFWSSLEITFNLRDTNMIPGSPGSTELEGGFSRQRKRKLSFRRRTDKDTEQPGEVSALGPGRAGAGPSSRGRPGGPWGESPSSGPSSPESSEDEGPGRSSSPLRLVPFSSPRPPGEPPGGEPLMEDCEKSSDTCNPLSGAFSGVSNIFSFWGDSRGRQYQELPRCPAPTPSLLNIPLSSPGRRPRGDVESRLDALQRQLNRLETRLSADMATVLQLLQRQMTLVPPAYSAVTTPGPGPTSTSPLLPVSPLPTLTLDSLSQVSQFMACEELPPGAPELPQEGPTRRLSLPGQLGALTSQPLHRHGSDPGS
ASSAY_COMMENT: Patch-Xpress patch-clamp hERG assay in HEK-293 cells
Format: cell-based
APPLIED_CONDITIONS: human, HEK-293 cells expressing hERG

# CPD_SMILES, IC20 [µM]
data = [
    ("COc1nc(-c2cc(C)c(N[C@@H](C)c3c(F)cc(F)cc3F)nn2)ccc1-n1cnc(C)c1", 1),
    ("COc1nc(-c2cc(C)c(N[C@@H](C)c3cc(F)cc(F)c3)nn2)ccc1-n1cnc(C)c1", 1.3),
]
